B1: TOR1AIP2 (parent)
chain: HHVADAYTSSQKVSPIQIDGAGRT

variants of: B1; test: protein stability index of a GFP-peptide fusion (GPS, HEK-293T) (PSI 1-6); higher = more stable; conditions: c terminus: a fixed tail appended;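 further: lentivirally expressed fusions sorted by FACS into six bins by GFP to DsRed ratio, PSI derived from sequencing read proportions per bin multiplied by bin number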
quantity: protein stability index
Answer using only a numeral; do not append any unit.

1) HHVADAYTSSQMVSPIQIDGAGRT [K12M] ... 3.4

Which protein stability index value is on record for HHVADAYTSSSKVSPIQIDGAGRT [Q11S] ? 3.44

Ref: the supplement of paper PMC10567573
